Origin of values: the supplement of paper PMC9112550

In this section we review reported shrunken log2 fold change values for a set of sequences.
# System: Escherichia coli TOP10
# TEST_NAME: shrunken log2 fold change of peptide-encoding DNA abundance (4.5 h post-induction vs induction); higher = less antimicrobial activity (less host growth inhibition)
# RECORDED_CONDITIONS: time post-induction: 4.5 h; library: site-saturation at positions 5, 18, 19, 20
I'd appreciate a reply containing only the number, no unit.

See these solved cases before continuing.
[[record]]
sequence_text = "RRIRIRPPRLPRPRPRPCWHPRP"
recorded_measurement = -0.428

[[record]]
sequence_text = "RRIRTRPPRLPRPRPRPTNDPRP"
recorded_measurement = -0.547

[[record]]
sequence_text = "RRIRMRPPRLPRPRPRPHVWPRP"
recorded_measurement = 0.281

[[record]]
sequence_text = "RRIRARPPRLPRPRPRPKPAPRP"
recorded_measurement = 0.711

[[record]]
sequence_text = "RRIRPRPPRLPRPRPRPEGNPRP"
recorded_measurement = 0.189

[[record]]
sequence_text = "RRIRRRPPRLPRPRPRPQLVPRP"
recorded_measurement = 0.0448

[[record]]
sequence_text = "RRIRPRPPRLPRPRPRPLEKPRP"
recorded_measurement = 0.261

[[record]]
sequence_text = "RRIRVRPPRLPRPRPRPVRAPRP"
recorded_measurement = 0.616

[[record]]
sequence_text = "RRIRMRPPRLPRPRPRPHSAPRP"
recorded_measurement = 0.283

[[record]]
sequence_text = "RRIRYRPPRLPRPRPRPTTRPRP"
recorded_measurement = -0.193


// field: shrunken log2 fold change; key: RRIRPRPPRLPRPRPRPADIPRP ; value = 0.142

The measured shrunken log2 fold change associated with RRIRIRPPRLPRPRPRPDHLPRP reads -0.846

So, RRIRTRPPRLPRPRPRPRKDPRP ? Its shrunken log2 fold change was -0.0522

Short answer for RRIRCRPPRLPRPRPRPWCDPRP : shrunken log2 fold change was -0.211

For reference, reported shrunken log2 fold change for RRIRERPPRLPRPRPRPIILPRP stands at -0.136

Memo: RRIRTRPPRLPRPRPRPELIPRP , reported shrunken log2 fold change: -0.0864

Lookup result for RRIRGRPPRLPRPRPRPWNQPRP ; measured shrunken log2 fold change: -0.139

Sure, the documented shrunken log2 fold change for RRIRVRPPRLPRPRPRPTHCPRP is 0.233

The reported shrunken log2 fold change of the sequence RRIRCRPPRLPRPRPRPYCRPRP was -0.0628

shrunken log2 fold change for RRIRTRPPRLPRPRPRPTYYPRP is -0.359

The reported shrunken log2 fold change of the sequence RRIRHRPPRLPRPRPRPGCEPRP was 0.103

Quick note, shrunken log2 fold change for RRIRERPPRLPRPRPRPQEIPRP landed at 0.0133

====

# Tested on: Escherichia coli TOP10
# TEST_NAME: shrunken log2 fold change of peptide-encoding DNA abundance (4.5 h post-induction vs induction); higher = less antimicrobial activity (less host growth inhibition)
# RECORDED_CONDITIONS: time post-induction: 4.5 h; library: site-saturation at positions 5, 18, 19, 20
Output: class label from shrunken log2 fold change. Mapping: b0 (below -0.04), b1 (-0.04 to below 0.1), b2 (0.1 or more)

[[record]]
sequence_text = "RRIRNRPPRLPRPRPRPATFPRP"
target_entity = "Escherichia coli TOP10"
assigned_category = "b0"

[[record]]
sequence_text = "RRIRARPPRLPRPRPRPDDTPRP"
target_entity = "Escherichia coli TOP10"
assigned_category = "b2"

[[record]]
sequence_text = "RRIRSRPPRLPRPRPRPSGVPRP"
target_entity = "Escherichia coli TOP10"
assigned_category = "b1"

[[record]]
sequence_text = "RRIRERPPRLPRPRPRPCKDPRP"
target_entity = "Escherichia coli TOP10"
assigned_category = "b0"

[[record]]
sequence_text = "RRIRFRPPRLPRPRPRPQSCPRP"
target_entity = "Escherichia coli TOP10"
assigned_category = "b1"


// bin(item) where item = RRIRHRPPRLPRPRPRPDTMPRP
b1

For the record RRIRRRPPRLPRPRPRPWVRPRP , report the class its shrunken log2 fold change corresponds to.
b0

Hey, which category is RRIRQRPPRLPRPRPRPCINPRP in, do you know?
b0

Returns: class label. Input: RRIRHRPPRLPRPRPRPEILPRP
b1

For this sequence, which bin applies? RRIRGRPPRLPRPRPRPVAMPRP
b2

Just checking, what class would you give RRIRFRPPRLPRPRPRPEGRPRP here?
b0

Kindly identify the class of RRIRARPPRLPRPRPRPFGVPRP .
b2

Band for RRIRDRPPRLPRPRPRPLGAPRP ?
b2

Form field 'band' for RRIRFRPPRLPRPRPRPMMPPRP
b1

====

# Tested on: Escherichia coli TOP10
# TEST_NAME: shrunken log2 fold change of peptide-encoding DNA abundance (4.5 h post-induction vs induction); higher = less antimicrobial activity (less host growth inhibition)
# RECORDED_CONDITIONS: time post-induction: 4.5 h; library: site-saturation at positions 5, 18, 19, 20
Listing: shrunken log2 fold change of selected sequences

Worked examples, 10 sequences total:
[[record]]
sequence_text = "RRIRGRPPRLPRPRPRPAHFPRP"
target_entity = "Escherichia coli TOP10"
recorded_measurement = 0.238

[[record]]
sequence_text = "RRIRSRPPRLPRPRPRPQQFPRP"
target_entity = "Escherichia coli TOP10"
recorded_measurement = -0.123

[[record]]
sequence_text = "RRIRKRPPRLPRPRPRPNFEPRP"
target_entity = "Escherichia coli TOP10"
recorded_measurement = 0.0868

[[record]]
sequence_text = "RRIRLRPPRLPRPRPRPGRHPRP"
target_entity = "Escherichia coli TOP10"
recorded_measurement = 0.0767

[[record]]
sequence_text = "RRIRRRPPRLPRPRPRPPFAPRP"
target_entity = "Escherichia coli TOP10"
recorded_measurement = 0.739

[[record]]
sequence_text = "RRIRGRPPRLPRPRPRPPGFPRP"
target_entity = "Escherichia coli TOP10"
recorded_measurement = 0.484

[[record]]
sequence_text = "RRIRHRPPRLPRPRPRPIHFPRP"
target_entity = "Escherichia coli TOP10"
recorded_measurement = -0.171

[[record]]
sequence_text = "RRIRKRPPRLPRPRPRPWLDPRP"
target_entity = "Escherichia coli TOP10"
recorded_measurement = 0.296

[[record]]
sequence_text = "RRIRDRPPRLPRPRPRPPDCPRP"
target_entity = "Escherichia coli TOP10"
recorded_measurement = 0.077

[[record]]
sequence_text = "RRIRPRPPRLPRPRPRPWHGPRP"
target_entity = "Escherichia coli TOP10"
recorded_measurement = 0.0257


Form field shrunken log2 fold change for item RRIRERPPRLPRPRPRPVYPPRP on Escherichia coli TOP10: -0.335

# lookup: RRIRHRPPRLPRPRPRPLTRPRP on Escherichia coli TOP10, shrunken log2 fold change = 0.0261

Entry RRIRERPPRLPRPRPRPVILPRP , Escherichia coli TOP10 data, shrunken log2 fold change value: -0.388

Test item RRIRCRPPRLPRPRPRPIDTPRP ; Escherichia coli TOP10; reported shrunken log2 fold change was -0.385

Summary: RRIRPRPPRLPRPRPRPTYKPRP , Escherichia coli TOP10, shrunken log2 fold change = -0.455

Record for RRIRPRPPRLPRPRPRPLIWPRP under target or system Escherichia coli TOP10: shrunken log2 fold change reported as 0.0601

Sample RRIRDRPPRLPRPRPRPPWWPRP , system: Escherichia coli TOP10. Its shrunken log2 fold change is 0.461

====

Listed sequences paired with reported shrunken log2 fold change
# Test system: Escherichia coli TOP10;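 further: peptides expressed intracellularly from a pBAD plasmid library in pooled LB shake-flask culture, induced with 0.3% L-arabinose, DNA abundance read by NGS, three biological replicates, DESeq2 with apeglm shrinkage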
# TEST_NAME: shrunken log2 fold change of peptide-encoding DNA abundance (4.5 h post-induction vs induction); higher = less antimicrobial activity (less host growth inhibition)
# RECORDED_CONDITIONS: time post-induction: 4.5 h; library: site-saturation at positions 5, 18, 19, 20
Number, no unit, nothing else.

Some solved cases for reference:
[[record]]
sequence_text = "RRIRARPPRLPRPRPRPCNSPRP"
observable = "shrunken log2 fold change"
recorded_measurement = -0.0983

[[record]]
sequence_text = "RRIRARPPRLPRPRPRPIRQPRP"
observable = "shrunken log2 fold change"
recorded_measurement = -0.00194


Value of shrunken log2 fold change reported for the sequence RRIRWRPPRLPRPRPRPDACPRP is 0.00464

Just so you know, measured shrunken log2 fold change for RRIRWRPPRLPRPRPRPQLCPRP came out at 0.078

The measured shrunken log2 fold change associated with RRIRWRPPRLPRPRPRPQPVPRP reads 0.135

Item: RRIRDRPPRLPRPRPRPYHFPRP | shrunken log2 fold change: -0.277

Looking up RRIRSRPPRLPRPRPRPAYSPRP , I see its shrunken log2 fold change listed as -0.0975

Short answer for RRIRKRPPRLPRPRPRPSKIPRP : shrunken log2 fold change was 0.154

Just so you know, measured shrunken log2 fold change for RRIRYRPPRLPRPRPRPVYNPRP came out at -0.394
